System: HCC-827
Test: relative viability (nuclei count vs DMSO), 5 days (fraction); higher = more cells survive
Conditions: first compound 5 µM
Kindly supply the reported relative viability values for the records listed here.
Answers are plain numbers.

{"Compound": "O=C(O)CCCCC(CCSCc1ccccc1)SCc1ccccc1 (stereo not drawn) [CPI-613] + Cc1nc(Nc2ncc(C(=O)Nc3c(C)cccc3Cl)s2)cc(N2CCN(CCO)CC2)n1 [Dasatinib] (partner 0.075 µM)", "relative viability": 0.262}
{"Compound": "O=C(O)CCCCC(CCSCc1ccccc1)SCc1ccccc1 (stereo not drawn) [CPI-613] + CS(=O)(=O)N1CCN(Cc2cc3nc(-c4cccc5[nH]ncc45)nc(N4CCOCC4)c3s2)CC1 [Pictilisib] (partner 1 µM)", "relative viability": 0.94}

Okay, now this compound:
Give measured relative viability for O=C(O)CCCCC(CCSCc1ccccc1)SCc1ccccc1 (stereo not drawn) [CPI-613] + COc1cccc2cc(-c3nc([C@H]4CC[C@H](C(=O)O)CC4)n4ncnc(N)c34)[nH]c12 [OSI-027] (partner 0.5 µM) (HCC-827).
0.745
